- Tested on: influenza A/California/07/09 (H1N1) strain
- assayComment: microbe, parasite or virus in culture
- Format: cell-based
- setupConditions: read-out: EC50 (effective 50% concentration), MDCK cells
readoutLabel: EC50 (µM)
Numeric answer only, unit µM assumed.

Query: Name the reported EC50 value associated with the compound NC(=O)c1nc(F)c[nH]c1=O
Response: 24
